Target: human ether-à-go-go-related gene (hERG) potassium channel (human, UniProt Q12809);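 note: peak tail current of the secondary pulse compared with the same well before compound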
Sequence (Q12809 whole entry, looked up): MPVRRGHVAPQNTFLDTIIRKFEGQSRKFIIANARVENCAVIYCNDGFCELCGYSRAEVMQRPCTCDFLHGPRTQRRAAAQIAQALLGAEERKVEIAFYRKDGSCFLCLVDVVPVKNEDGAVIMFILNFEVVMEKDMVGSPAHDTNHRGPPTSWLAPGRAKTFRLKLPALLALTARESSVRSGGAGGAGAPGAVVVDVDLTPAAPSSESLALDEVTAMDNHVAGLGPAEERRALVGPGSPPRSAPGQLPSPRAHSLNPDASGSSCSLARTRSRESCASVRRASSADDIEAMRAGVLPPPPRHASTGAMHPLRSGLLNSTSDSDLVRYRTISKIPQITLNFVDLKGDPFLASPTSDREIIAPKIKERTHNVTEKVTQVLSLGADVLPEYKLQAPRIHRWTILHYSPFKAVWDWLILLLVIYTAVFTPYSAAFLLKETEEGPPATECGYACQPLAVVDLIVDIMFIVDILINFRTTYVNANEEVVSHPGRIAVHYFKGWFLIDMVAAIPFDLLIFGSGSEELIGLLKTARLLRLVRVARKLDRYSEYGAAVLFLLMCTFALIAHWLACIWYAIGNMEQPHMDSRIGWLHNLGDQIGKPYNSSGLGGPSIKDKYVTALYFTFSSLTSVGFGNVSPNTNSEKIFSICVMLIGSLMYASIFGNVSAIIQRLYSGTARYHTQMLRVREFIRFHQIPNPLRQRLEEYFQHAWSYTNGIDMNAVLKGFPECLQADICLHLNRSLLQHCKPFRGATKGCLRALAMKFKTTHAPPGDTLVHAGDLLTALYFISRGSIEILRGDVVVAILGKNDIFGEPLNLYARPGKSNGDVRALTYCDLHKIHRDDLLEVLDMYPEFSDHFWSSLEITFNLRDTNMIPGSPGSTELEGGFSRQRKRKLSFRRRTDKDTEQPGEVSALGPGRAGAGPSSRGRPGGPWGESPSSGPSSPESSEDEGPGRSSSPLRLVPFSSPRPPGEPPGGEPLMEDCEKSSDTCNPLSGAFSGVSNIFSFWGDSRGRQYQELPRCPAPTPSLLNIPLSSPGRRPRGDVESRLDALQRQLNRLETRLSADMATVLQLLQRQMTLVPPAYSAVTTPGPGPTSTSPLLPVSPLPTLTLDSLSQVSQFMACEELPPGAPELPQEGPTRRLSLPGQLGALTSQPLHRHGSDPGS
Test: primary screen, population patch clamp on CHO cells stably expressing hERG; higher = less effect of the substance
Method: Briefly, Chinese hamster ovary (CHO) cells stably expressing the hERG channel were dislodged from tissue culture flasks and dispensed into PPC plates. […] During the recording, background leak currents were estimated by a 100 ms step to -80 mV from an initial holding potential of -70 mV and subtracted from the subsequent current measurement. The campaign was conducted in two phases using slight differences in recording protocol. […]
About 14,000 (4.5%) of roughly 310,000 compounds showed an effect of 50% or more. Effects have a minus sign here. What follows is part of a selection rich in strong results, with near analogues and random picks from the rest.
Provide the recorded hERG current change (%, negative = inhibition) at 10uM for the entries that follow.
Please format your answer as a value with the unit trailing.

Recorded results for 4 compounds are shown here.
[
  {
    "compound": "CCC(C)n1c(-c2ccco2)nc2nc3ccccc3nc21 (stereo not drawn)",
    "result": "-3.86%"
  },
  {
    "compound": "CCCc1ccc(S(=O)(=O)N/N=C\\c2ccc3c(c2)OCO3)cc1",
    "result": "-0.771%"
  },
  {
    "compound": "Cc1ccccc1CC(=O)N(CCN(C)C)CC1CCCN(Cc2ccccc2F)C1 (stereo not drawn)",
    "result": "1.19%"
  },
  {
    "compound": "COc1ccc(NS(=O)(=O)c2cc(NC(=O)CC(=O)c3ccc([N+](=O)[O-])cc3)ccc2C)cc1",
    "result": "5.94%"
  }
]

Please state, for each entry, its recorded hERG current change (%, negative = inhibition) at 10uM.
1. COc1ccc(C(=O)CC(=O)Nc2ccc([N+](=O)[O-])cc2)cc1
2. CCOC(=O)C1CCN(C(=O)c2cc(S(=O)(=O)N3CCc4ccccc43)ccc2OC)CC1
3. COc1ccccc1CCN1CCCC(CN(C)C(=O)c2ccco2)C1 (stereo not drawn)

### Response
["-1.39%", "-60.3%", "-68.9%"]

Please state, for each entry, its recorded hERG current change (%, negative = inhibition) at 10uM.
1. CCCn1c(-c2cc(OC)c(OC)c(OC)c2)nc2nc3ccccc3nc21
2. Cc1ccnc(NC(=O)CNC(=O)c2ccc3ccccc3c2)c1

### Response
1: -37.5%; 2: -12.5%

---

Provide the recorded hERG current change (%, negative = inhibition) at 10uM for the entries that follow.
biological target: human ether-à-go-go-related gene (hERG) potassium channel (human); experiment: primary screen, population patch clamp on CHO cells stably expressing hERG; higher = less effect of the substance;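 note: peak tail current of the secondary pulse compared with the same well before compound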
Among all 310,000 compounds or so, about 14,000 (4.5%) showed an effect of 50% or more. Effects have a minus sign here. The list comes from a sample in which strong results are over-represented; it also holds close analogues and randomly drawn compounds.
One number for each entry, in %.

Recorded results for 4 compounds are shown here.
[
  {
    "smiles_structure": "O=S(=O)(c1ccccc1)N1CCC(O)(CN2CCN(c3ccccc3)CC2)CC1",
    "assay_system": "human ether-à-go-go-related gene (hERG) potassium channel (human)",
    "unit_text": "%",
    "result": 12.2
  },
  {
    "smiles_structure": "O=c1cc(CN2CCN(S(=O)(=O)c3ccccc3)CC2)nc2sccn12",
    "assay_system": "human ether-à-go-go-related gene (hERG) potassium channel (human)",
    "unit_text": "%",
    "result": -2.25
  },
  {
    "smiles_structure": "O=S(=O)(c1ccc(Cl)cc1)N1CCC(O)(CN2CCN(Cc3ccccc3)CC2)CC1",
    "assay_system": "human ether-à-go-go-related gene (hERG) potassium channel (human)",
    "unit_text": "%",
    "result": -75.8
  },
  {
    "smiles_structure": "COc1ccc(S(=O)(=O)N2CCC(N3CCN(Cc4ccccc4)CC3)CC2)cc1.O=C(O)C(=O)O",
    "assay_system": "human ether-à-go-go-related gene (hERG) potassium channel (human)",
    "unit_text": "%",
    "result": -39.2
  }
]

### Prompt Given the entry `Cc1ccc(S(=O)(=O)N2CCN(Cc3ccccc3)CC2)cc1` , report its measured hERG current change (%, negative = inhibition) at 10uM.
### Response -9.58
